experiment: Ratio of drug level in Wistar rat brain to plasma at 1 mg/kg, ip measured after 35 mins by HPLC-MS/MS analysis; format: ADME, organism-based; conditions: read-out: BPR
Answer each item with its documented Kp at 35 min.

substance-smiles: Cc1ccc(CN2CCN(C(=O)C(=O)Nc3ccc4c(ccn4C)c3)CC2)cc1
Kp at 35 min: 4.93

--- query ---
Reported Kp at 35 min for O=C(NCc1ccc2[nH]ccc2c1)N1CC(COc2ccc(C(F)(F)F)cc2)C1 was 1.43

###

test: Plasma concentration in NMRI mouse at 10 mg/kg, ip measured after 1 hr by HPLC-MS/MS analysis; type: ADME, organism-based
Answer each item with its documented concentration at 1 h.
Give bare numbers, in nM.

Example entries begin here.
substance-smiles: Cc1ccc(OC2CCN(C(=O)C(=O)Nc3ccc4c(ccn4C)c3)CC2)cc1
unit-text: nM
concentration at 1 h: 653
--
substance-smiles: Cc1ccc(Oc2ccc(C(=O)C(=O)Nc3ccc4c(ccn4C)c3)cn2)cc1
unit-text: nM
concentration at 1 h: 1260
--
substance-smiles: O=C(NCc1ccc2[nH]ccc2c1)N1CC(COc2ccc(C(F)(F)F)cc2)C1
unit-text: nM
concentration at 1 h: 9470

--- query ---
Reported concentration at 1 h for Cc1ccc(CN2CCN(C(=O)C(=O)Nc3ccc4c(ccn4C)c3)CC2)cc1 was 142
